pIC50: recorded values
system under test: TNFα / TNFα receptor (TNFα R1/Fc) (Homo sapiens, UniProt P01375)
Construct: purchased R&D Systems
Sequence (P01375 77-233 limits assumed, species assumed): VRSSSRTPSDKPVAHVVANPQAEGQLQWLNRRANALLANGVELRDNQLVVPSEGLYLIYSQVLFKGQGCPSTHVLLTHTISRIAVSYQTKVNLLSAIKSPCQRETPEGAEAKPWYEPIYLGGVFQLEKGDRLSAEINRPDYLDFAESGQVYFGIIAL
procedure text: Inhibition of binding of TNFα to the TNFα receptor (plate ELISA competition)
measurement conditions: Table 2; read-out: Activity (IC50, inhibition of TNFα binding to TNFα R1/Fc)
pIC50: −log10 of the molar value. Numbered stars: 1 amine (or outer) side, 2 acyl side, 3 side chain; on linkers, the order of the positions; unused ones are H or OH. Bridge positions count the residues as written; N and C are the ends. Square brackets hold non-standard residues; d marks the D form. Peptide text beside a SMILES is read from it. dPhe(3-CF3) = N[C@H](Cc1cccc(C(F)(F)F)c1)C(=O)O; Bip = N[C@@H](Cc1ccc(-c2ccccc2)cc1)C(=O)O; Phe(4-NH2) = Nc1ccc(C[C@H](N)C(=O)O)cc1; d2Thi = N[C@H](Cc1cccs1)C(=O)O; Suc = O=C(CCC(=O)[*:2])[*:1]

Incoming: Query (molecule): O=C1CCC(=O)N[C@H](Cc2cccs2)C(=O)N[C@@H](Cc2ccc(-c3ccccc3)cc2)C(=O)N[C@H](Cc2cccc(C(F)(F)F)c2)C(=O)N[C@H](C(=O)O)Cc2ccc(cc2)N1 [Compound 78] ([d2Thi][Bip][dPhe(3-CF3)][Phe(4-NH2)]-OH; linker N-4 via Suc) ; field requested: pIC50
Outgoing: < 4.00

--- query ---
Incoming: Query (molecule): `COc1ccc(-c2ccc(C[C@@H]3NC(=O)[C@H](Cc4cccs4)NC(=O)COc4ccc(cc4)C[C@@H](C(=O)O)NC(=O)[C@H](Cc4ccccc4)NC3=O)cc2)cc1` ; field requested: pIC50
Outgoing: > 5.00
